Each recorded value in this set is attributed to patent US20210395226A1.

- PROTOCOL_DESCRIPTION: Pharmacokinetics (PK) and distribution in brain tissue in rats
- Type: in vivo, male SD rats
- STUDY_CONDITIONS: male, SD, plasma; rat, oral 5 mg/kg compared with intravenous 1 mg/kg
Reported bioavailability values for a set of compounds
ENDPOINT: bioavailability

{"COMPOUND": "Cc1cc(-c2cnc(NC(=O)N3CCOCC3)nc2-c2ccc(F)cc2)cc(Cl)n1 [Compound 19]", "REPORTED_VALUE": "86.8%"}
{"COMPOUND": "Cc1ncnc2ccc(-c3cc(F)c(NC(=O)N4CCOCC4)nc3-c3ccc(F)cc3)cc12 [Compound 32]", "REPORTED_VALUE": "80.2%"}
{"COMPOUND": "Cc1ncnc2ccc(-c3cnc(NC(=O)N4CCOCC4)nc3-c3ccc(F)cc3)cc12 [Compound 11]", "REPORTED_VALUE": "65.3%"}

====

- SYSTEM_TESTED: ADORA2a/CHOK1 cells (Homo sapiens, UniProt P29274)
- Construct: host or cells: CHO-K1
- PROTOCOL_DESCRIPTION: Inhibitory activity for ADORA2a/CHOK1 cells (cAMP detection, adenosine as agonist)
- Assay type: cell-based
- STUDY_CONDITIONS: CHO-K1, 100 nM compound, read-out: Inhibition rate at 100 nM
ENDPOINT: inhibition at 0.1 µM (%)

{"SMILES_TEXT": "Cc1ncnc2ccc(-c3c(-c4ccc(F)cc4)nc(NC(=O)N4CCOCC4)nc3C3CC3)cc12", "SYSTEM_TESTED": "ADORA2a/CHOK1 cells (Homo sapiens, UniProt P29274)", "MEASURE_UNIT": "%", "REPORTED_VALUE": 64.8}
{"SMILES_TEXT": "Cc1ncnc2ccc(-c3cnc(NC(=O)N4CCOCC4)nc3-c3ccc(F)cc3)cc12", "SYSTEM_TESTED": "ADORA2a/CHOK1 cells (Homo sapiens, UniProt P29274)", "MEASURE_UNIT": "%", "REPORTED_VALUE": 72}
{"SMILES_TEXT": "Cc1cc(-c2cnc(NC(=O)N3CCOCC3)nc2-c2ccc(F)cc2)cc(Cl)n1", "SYSTEM_TESTED": "ADORA2a/CHOK1 cells (Homo sapiens, UniProt P29274)", "MEASURE_UNIT": "%", "REPORTED_VALUE": 33.9}
{"SMILES_TEXT": "Cc1ncnc2ccc(-c3c(C#N)cc(NC(=O)N4CCOCC4)nc3-c3ccc(F)cc3)cc12", "SYSTEM_TESTED": "ADORA2a/CHOK1 cells (Homo sapiens, UniProt P29274)", "MEASURE_UNIT": "%", "REPORTED_VALUE": 59.1}

====

- SYSTEM_TESTED: Adenosine A2a receptor (human) membrane (Homo sapiens)
- Construct: purchased PerkinElmer RBHA2AM400UA
- Sequence (P29274 whole entry): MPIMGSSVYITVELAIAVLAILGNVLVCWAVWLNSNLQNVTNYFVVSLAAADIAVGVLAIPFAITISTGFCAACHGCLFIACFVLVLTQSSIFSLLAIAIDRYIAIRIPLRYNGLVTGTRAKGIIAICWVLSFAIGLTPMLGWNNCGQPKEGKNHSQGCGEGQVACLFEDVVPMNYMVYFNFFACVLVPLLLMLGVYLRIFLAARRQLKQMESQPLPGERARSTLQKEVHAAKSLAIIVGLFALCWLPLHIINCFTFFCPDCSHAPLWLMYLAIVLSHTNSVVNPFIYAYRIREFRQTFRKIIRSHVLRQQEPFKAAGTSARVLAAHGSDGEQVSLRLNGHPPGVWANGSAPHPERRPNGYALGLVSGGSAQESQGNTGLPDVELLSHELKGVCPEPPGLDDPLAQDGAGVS
- PROTOCOL_DESCRIPTION: Determination of competitive inhibition constant (Ki) for adenosine A2a receptor, [3H]-CGS-21680 radioligand
- Format: binding
- STUDY_CONDITIONS: human A2a receptor membrane, 6.0 nM [3H]-CGS-21680; read-out: Ki(A2a)
pKi: −log10 of the molar value.
Given measured pKi, output 1 (yes) if it is greater than or equal to 8 and 0 (no) if not.

{"SMILES_TEXT": "Cc1ncnc2ccc(-c3c(Cl)cc(NC(=O)N4CCOCC4)nc3-c3ccc(F)cc3)cc12", "CATEGORY": "1 (yes)"}
{"SMILES_TEXT": "COCCN(C)C(=O)Nc1ncc(-c2ccc3ncnc(C)c3c2)c(-c2ccc(F)cc2)n1", "CATEGORY": "0 (no)"}
{"SMILES_TEXT": "Cc1ncnc2ccc(-c3cnc(NC(=O)N4CCC(C#N)CC4)nc3-c3ccc(F)cc3)cc12", "CATEGORY": "1 (yes)"}
{"SMILES_TEXT": "Cc1ncnc2ccc(-c3cnc(N)nc3-c3ccc(F)cc3)cc12", "CATEGORY": "1 (yes)"}
{"SMILES_TEXT": "Cc1cc(-c2cnc(NC(=O)N3CCC(C#N)CC3)nc2-c2ccc(F)cc2)cc(Cl)n1", "CATEGORY": "0 (no)"}
{"SMILES_TEXT": "Cc1ncnc2ccc(-c3cc(F)c(N)nc3-c3ccc(F)cc3)cc12", "CATEGORY": "1 (yes)"}
{"SMILES_TEXT": "Cc1ncnc2ccc(-c3cnc(NC(=O)N4CCN(C)CC4)nc3-c3ccc(F)cc3)cc12", "CATEGORY": "0 (no)"}
{"SMILES_TEXT": "Cc1ncnc2ccc(-c3c(C#N)cc(NC(=O)N4CCOCC4)nc3-c3ccc(F)cc3)cc12", "CATEGORY": "1 (yes)"}
{"SMILES_TEXT": "Cc1ncnc2ccc(-c3cnc(NC(=O)N4CCO[C@H](C)C4)nc3-c3ccc(F)cc3)cc12", "CATEGORY": "1 (yes)"}
{"SMILES_TEXT": "Cc1ccnc2ccc(-c3c(-c4ccc(F)cc4)nc(NC(=O)N4CCOCC4)nc3C3CC3)cc12", "CATEGORY": "1 (yes)"}
{"SMILES_TEXT": "Cc1ncnc2ccc(-c3cnc(NC(=O)N(C)Cc4ccccn4)nc3-c3ccc(F)cc3)cc12", "CATEGORY": "1 (yes)"}
{"SMILES_TEXT": "Cc1ccc(-c2nc(NC(=O)N3CCC(N4CCCCC4)CC3)nnc2-c2ccc3ncnc(C)c3c2)o1", "CATEGORY": "1 (yes)"}
{"SMILES_TEXT": "Cc1ncnc2ccc(-c3cnc(NC(=O)N4CCOCC4)nc3-c3ccc(F)cc3)cc12", "CATEGORY": "1 (yes)"}
{"SMILES_TEXT": "Cc1ncnc2ccc(-c3ccc(NC(=O)N4CCOCC4)nc3-c3ccc(F)cc3)cc12", "CATEGORY": "1 (yes)"}
{"SMILES_TEXT": "Cc1cc(-c2cnc(N)nc2-c2ccc(F)cc2)cc(Cl)n1", "CATEGORY": "1 (yes)"}
